Cited source for all entries: ChEMBL document CHEMBL5291721

target_desc: Gamma-aminobutyric acid receptor subunit alpha-1 (Rattus norvegicus); also: assay procedure not described here
Sequence (P62813 whole entry): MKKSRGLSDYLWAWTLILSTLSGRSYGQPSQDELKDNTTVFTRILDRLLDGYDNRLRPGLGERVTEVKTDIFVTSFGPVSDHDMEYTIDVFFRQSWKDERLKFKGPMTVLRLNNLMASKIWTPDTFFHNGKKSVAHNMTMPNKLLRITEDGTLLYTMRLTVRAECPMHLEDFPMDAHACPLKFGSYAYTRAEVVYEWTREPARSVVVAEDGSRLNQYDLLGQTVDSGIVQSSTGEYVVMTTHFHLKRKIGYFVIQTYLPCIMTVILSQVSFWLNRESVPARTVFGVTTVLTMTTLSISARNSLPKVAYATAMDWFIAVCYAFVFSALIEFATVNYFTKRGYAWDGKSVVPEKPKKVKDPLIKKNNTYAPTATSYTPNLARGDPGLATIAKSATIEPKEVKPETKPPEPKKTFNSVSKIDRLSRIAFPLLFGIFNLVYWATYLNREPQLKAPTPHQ
Format: functional
assay_readout: AC50

Study these solved cases before continuing.
Data point: NS(=O)(=O)c1cc(C(=O)O)cc(N2CCCC2)c1Oc1ccccc1 [PIRETANIDE] ; AC50 = > 30 µM

Data point: CCn1cc(C(=O)O)c(=O)c2cc(F)c(N3CCN(C)CC3)cc21 ; AC50 = > 30 µM

Data point: CC(=O)OCC(=O)[C@@]1(O)CC[C@H]2[C@@H]3CCC4=CC(=O)CC[C@]4(C)C3=CC[C@@]21C [ANECORTAVE ACETATE] ; AC50 = > 10 µM

Data point: Cc1cc(CC(=O)O)n(C)c1C(=O)c1ccc(Cl)cc1 [ZOMEPIRAC] ; AC50 = > 30 µM

Data point: COc1cccc(N(C)C(=S)Oc2ccc3c(c2)CCCC3)n1 [LIRANAFTATE] ; AC50 = > 30 µM

For every listed record, write down its AC50.
1. COc1c(O[C@@H]2O[C@H](CO)[C@@H](O)[C@H](O)[C@H]2O)cc2c(c1OC)-c1ccc(SC)c(=O)cc1[C@@H](NC(C)=O)CC2 [THIOCOLCHICOSIDE]
2. CCn1cc(C(=O)O)c(=O)c2cc(F)c(N3CCNCC3)nc21
3. CCN(CC)C(=O)C1(c2ccccc2)CC1CN (stereo not drawn)

1: > 30 µM; 2: > 10 µM; 3: > 30 µM
